# test-name: Cytotoxicity against Varicella zoster virus infected HEL cells assessed as alteration of cell morphology incubated for 3 days by microscopy
# Type: cell-based
# condition-summary: human, HEL cells infected with Varicella zoster virus
measure-name: MCC at 72 h

{"molecular-string": "O=C(Cn1c(=O)c(I)cn(CCCCCOc2ccc(Br)cc2)c1=O)Nc1ccc(Oc2ccccc2)cc1", "measure-name": "MCC at 72 h", "measured": "> 100 µM"}
{"molecular-string": "O=C(Cn1c(=O)ccn(CCCCCOc2cccc(Br)c2)c1=O)Nc1ccc(Oc2ccccc2)cc1", "measure-name": "MCC at 72 h", "measured": "> 100 µM"}
{"molecular-string": "O=C(Cn1c(=O)ccn(CCCCCCc2ccccc2)c1=O)Nc1ccc(Oc2ccccc2)cc1", "measure-name": "MCC at 72 h", "measured": "> 100 µM"}
{"molecular-string": "O=C(Cn1c(=O)ccn(CCCCOc2ccc(Br)cc2)c1=O)Nc1ccc(Oc2ccccc2)cc1", "measure-name": "MCC at 72 h", "measured": "> 100 µM"}
{"molecular-string": "O=C(Cn1c(=O)ccn(COCCOCc2ccc(Br)cc2)c1=O)Nc1ccc(Oc2ccccc2)cc1", "measure-name": "MCC at 72 h", "measured": "> 100 µM"}
{"molecular-string": "O=c1[nH]c(=O)n([C@H]2C[C@H](O)[C@@H](CO)O2)cc1/C=C/Br", "measure-name": "MCC at 72 h", "measured": "> 300 µM"}
{"molecular-string": "O=C(Cn1c(=O)ccn(CCCCCOc2ccc(Br)cc2)c1=O)Nc1ccccc1", "measure-name": "MCC at 72 h", "measured": "≥ 20 µM"}
{"molecular-string": "O=C(Cn1c(=O)ccn(CCCCCOc2ccc(Br)cc2)c1=O)Nc1ccc(C(=O)c2ccccc2)cc1", "measure-name": "MCC at 72 h", "measured": "> 100 µM"}
{"molecular-string": "O=C(Cn1c(=O)ccn(CCCCCOc2ccc(Br)cc2)c1=O)Nc1ccc(Oc2ccccc2)cc1", "measure-name": "MCC at 72 h", "measured": "> 100 µM"}
{"molecular-string": "O=C(Cn1c(=O)ccn(CCCOc2ccc(Br)cc2)c1=O)Nc1ccc(Oc2ccccc2)cc1", "measure-name": "MCC at 72 h", "measured": "≥ 100 µM"}
{"molecular-string": "O=C(Cn1c(=O)ccn(CCCCCCCCOc2ccc(Br)cc2)c1=O)Nc1ccc(Oc2ccccc2)cc1", "measure-name": "MCC at 72 h", "measured": "0.8 µM"}

---

# Test system: Human betaherpesvirus 5
# test-name: Antiviral activity against human cytomegalovirus AD169 infected in HEL cells assessed as reduction in viral plaque formation
# Format: functional, organism-based
# condition-summary: Human betaherpesvirus 5, AD169, HEL
EC50: recorded values
measure-name: EC50 (nM)

{"molecular-string": "O=C(Cn1c(=O)ccn(CCCCCOc2ccc(Br)cc2)c1=O)Nc1ccccc1", "unit-info": "nM", "inequality-sign": ">", "measured": 4000}
{"molecular-string": "O=C(Cn1c(=O)c(I)cn(CCCCCOc2ccc(Br)cc2)c1=O)Nc1ccc(Oc2ccccc2)cc1", "unit-info": "nM", "inequality-sign": ">", "measured": 20000}
{"molecular-string": "O=C(Cn1c(=O)ccn(CCCCCCCCOc2ccc(Br)cc2)c1=O)Nc1ccc(Oc2ccccc2)cc1", "unit-info": "nM", "inequality-sign": "<", "measured": 32}
{"molecular-string": "O=C(Cn1c(=O)ccn(CCCCCOc2ccccc2)c1=O)Nc1ccc(Oc2ccccc2)cc1", "unit-info": "nM", "inequality-sign": "=", "measured": 3600}
{"molecular-string": "O=C(Cn1c(=O)ccn(CCCCOc2ccc(Br)cc2)c1=O)Nc1ccc(Oc2ccccc2)cc1", "unit-info": "nM", "inequality-sign": "=", "measured": 1790}
{"molecular-string": "O=C(Cn1c(=O)ccn(COCCOCc2ccc(Br)cc2)c1=O)Nc1ccc(Oc2ccccc2)cc1", "unit-info": "nM", "inequality-sign": ">", "measured": 20000}
{"molecular-string": "O=C(Cn1c(=O)ccn(Cc2ccc(Oc3ccc(Br)cc3)cc2)c1=O)Nc1ccc(Oc2ccccc2)cc1", "unit-info": "nM", "inequality-sign": ">", "measured": 800}
{"molecular-string": "O=C(Cn1c(=O)ccn(CCCCCOc2ccc(Br)cc2)c1=O)Nc1ccc(C(=O)c2ccccc2)cc1", "unit-info": "nM", "inequality-sign": "=", "measured": 1790}
{"molecular-string": "O=C(Cn1c(=O)ccn(CCCCCOc2cccc(Br)c2)c1=O)Nc1ccc(Oc2ccccc2)cc1", "unit-info": "nM", "inequality-sign": "=", "measured": 2000}
{"molecular-string": "O=C(Cn1c(=O)ccn(CCCCCOc2ccc(Br)cc2)c1=O)Nc1ccc(OCc2ccccc2)cc1", "unit-info": "nM", "inequality-sign": ">", "measured": 20000}
{"molecular-string": "O=C(Cn1c(=O)ccn(CCCCCCc2ccccc2)c1=O)Nc1ccc(Oc2ccccc2)cc1", "unit-info": "nM", "inequality-sign": ">", "measured": 20000}
{"molecular-string": "O=C(Cn1c(=O)ccn(CCCCCOc2ccc(-c3ccccc3)cc2)c1=O)Nc1ccc(Oc2ccccc2)cc1", "unit-info": "nM", "inequality-sign": "=", "measured": 510}
{"molecular-string": "O=C(Cn1c(=O)ccn(CCCCOCc2ccc(Br)cc2)c1=O)Nc1ccc(Oc2ccccc2)cc1", "unit-info": "nM", "inequality-sign": "=", "measured": 1800}
{"molecular-string": "N#Cc1ccc(OCCCCCn2ccc(=O)n(CC(=O)Nc3ccc(Oc4ccccc4)cc3)c2=O)cc1", "unit-info": "nM", "inequality-sign": "=", "measured": 530}
{"molecular-string": "O=C(Cn1c(=O)ccn(CCCCCOc2ccc(Br)cc2)c1=O)Nc1ccc(Cc2ccccc2)cc1", "unit-info": "nM", "inequality-sign": "=", "measured": 440}

---

// values below are reported MCC at 72 h
# test-name: Cytotoxicity against human cytomegalovirus infected HEL cells assessed as alteration of cell morphology incubated for 3 days by microscopy
# Assay type: cell-based
# condition-summary: HEL cells infected with human cytomegalovirus

{"molecular-string": "O=C(Cn1c(=O)ccn(Cc2ccc(Oc3ccc(Br)cc3)cc2)c1=O)Nc1ccc(Oc2ccccc2)cc1", "inequality-sign": "=", "MCC at 72 h, µM": 4}
{"molecular-string": "O=C(Cn1c(=O)ccn(CCCCCCOc2ccc(Br)cc2)c1=O)Nc1ccc(Oc2ccccc2)cc1", "inequality-sign": "=", "MCC at 72 h, µM": 4}
{"molecular-string": "O=C(Cn1c(=O)ccn(COCCOCc2ccc(Br)cc2)c1=O)Nc1ccc(Oc2ccccc2)cc1", "inequality-sign": "=", "MCC at 72 h, µM": 100}
{"molecular-string": "O=C(Cn1c(=O)ccn(CCCCCOc2ccc(Br)cc2)c1=O)Nc1ccc(C(=O)c2ccccc2)cc1", "inequality-sign": "≥", "MCC at 72 h, µM": 20}
{"molecular-string": "O=C(Cn1c(=O)ccn(CCCCCOc2ccc(Br)cc2)c1=O)Nc1ccccc1", "inequality-sign": "=", "MCC at 72 h, µM": 20}
